- Test system: TNFα-FL/Gaussia Luciferase
- experiment.notes: Dox Induced TNFα-FL-Gluc Assay
- Format: cell-based
- applied.conditions: ratio of TNFaFLGluc IC50 to PD1ssGluc IC50
Field: 24 hr Dox Inducible TNFaFLGluc 293FRT/TO: TNF/PD1. Provide a value for each of the molecules that follow.
No unit in the answer, only the number.

Which measured 24 hr Dox Inducible TNFaFLGluc 293FRT/TO: TNF/PD1 belongs to O=C(Nc1nc([C@H]2CCCN2c2ccc(O[C@@H]3CCOC3)cc2)cs1)c1cccn1Cc1ccncc1 , tested on TNFα-FL/Gaussia Luciferase?
11

And for C[C@@H](N)c1ccc(N2CCC[C@@H]2c2csc(NC(=O)c3cccn3Cc3ccncc3)n2)cc1 ?
36.4

---

- System: TNFα-FL/Gaussia Luciferase
- experiment.notes: Dox Induced TNFα-FL-Gluc Assay
- Format: cell-based
- applied.conditions: ratio of TNFaFLGluc IC50 to PD1ssGluc IC50
experimental.readout: 24 hr Dox Inducible TNFaFLGluc 293FRT/TO: TNF/PD1
Lab note: record the figure alone, no unit after it.

Which 24 hr Dox Inducible TNFaFLGluc 293FRT/TO: TNF/PD1 reading was recorded for the compound CC(=O)Nc1cc(F)c(N2CCC[C@@H]2c2csc(NC(=O)c3cccn3Cc3ccnc(F)c3)n2)c(F)c1 ?
27.2

How about CC(=O)N1CCC(Oc2ccc(N3CCC[C@@H]3c3csc(NC(=O)c4cccn4Cc4ccnc(F)c4)n3)nc2)CC1 ?
9.97

Again, but for NS(=O)(=O)N1CC(Oc2ccc(N3CCC[C@@H]3c3csc(NC(=O)c4cccn4Cc4ccnc(F)c4)n3)cc2)C1
15.4

For CS(=O)(=O)N1CC(Oc2ccc(N3CCC[C@@H]3c3csc(NC(=O)c4cccn4Cc4ccnc(F)c4)n3)cc2)C1 then?
18.5

Also O=C(Nc1nc([C@H]2CCCN2c2ccc(OC3CCN(C(=O)CO)CC3)cc2)cs1)c1cccn1Cc1ccnc(F)c1 , if possible.
22.6

# iterate: CNS(=O)(=O)N1CC(Oc2ccc(N3CCC[C@@H]3c3csc(NC(=O)c4cccn4Cc4ccnc(F)c4)n3)cc2)C1
17.9

What do you have for O=C(Nc1nc([C@H]2CCCN2c2ccc(C3(O)CCC3)cc2)cs1)c1cccn1Cc1ccnc(F)c1 ?
15.2

Same question, CC(=O)N1CCC(Oc2ccc(N3CCC[C@@H]3c3csc(NC(=O)c4cccn4Cc4ccnc(F)c4)n3)cc2)C(F)C1 (some centres unmarked) this time
8.39

Can you check NCc1ccc(N2CCC[C@@H]2c2csc(NC(=O)c3cccn3Cc3ccncc3)n2)cc1 next?
23.3

// query: CC(=O)N(C)CCOc1ccc(N2CCC[C@@H]2c2csc(NC(=O)c3cccn3Cc3ccnc(F)c3)n2)cc1
10.7

Please answer likewise for CC(=O)N1CCC(Oc2ccc(N3CCC[C@@H]3c3csc(NC(=O)c4cccn4Cc4ccncc4)n3)cc2)CC1
23.8

CC(=O)N1CC=C(Oc2ccc(N3CCC[C@@H]3c3csc(NC(=O)c4cccn4Cc4ccnc(F)c4)n3)cc2)CC1 ?
8.31

Thanks! And O=C(Nc1ccc(N2CCC[C@@H]2c2csc(NC(=O)c3cccn3Cc3ccnc(F)c3)n2)cc1)OC1COC1 ?
27.6

Queued: Cc1cc(C(=O)Nc2nc([C@H]3CCCN3c3ccc(OC4CCN(C(N)=O)CC4)cc3)cs2)n(Cc2ccnc(F)c2)c1
14.1

How about this compound: CC(=O)N1CCC[C@@H](Oc2ccc(N3CCC[C@@H]3c3csc(NC(=O)c4cccn4Cc4ccnc(F)c4)n3)cc2)C1
18.6

Same for O=C(Nc1nc([C@H]2CCCN2c2ccc(OC3CCS(=O)(=O)CC3)cc2)cs1)c1cccn1Cc1ccnc(F)c1
12.8

Repeat for the following compound: CC(=O)N1CCC(Oc2ccc(N3CCC[C@@H]3c3csc(NC(=O)c4cccn4Cc4ccnc(F)c4)n3)cc2)C1 (some centres unmarked)
15.9

Also CN(C)c1cccc(-c2csc(NC(=O)c3cccn3Cc3ccncc3)n2)c1 , if possible.
22.9

What about this compound? [2H]c1cc([2H])cc(N2CCC[C@@H]2c2csc(NC(=O)c3cccn3Cc3ccnc(F)c3)n2)c1
15.9

---

- experiment.notes: Liver Microsome Stability Assay (rat)
- applied.conditions: rat liver microsomes, with NADPH, 1.0 uM compound
Give measured Liver Microsome Stability (Multiple Species): Rat - % Remaining after 30 min w/NADPH for each item. Keep answers brief.
Supply the numeric figure in %, leaving out any unit text.

Give the measured Liver Microsome Stability (Multiple Species): Rat - % Remaining after 30 min w/NADPH of O=C(Nc1nc([C@H]2CCCN2C2COC2)cs1)c1cccn1Cc1ccncc1 .
1.92

And what about the molecule O=C(NC/C=C/c1csc(NC(=O)c2cccn2Cc2ccncc2)n1)c1ccccc1 ?
6.61

# repeat for COc1cc(N2CCC[C@@H]2c2csc(NC(=O)c3cccn3Cc3ccnc(F)c3)n2)ccc1OC1CCN(C(C)=O)CC1
0.45

Follow-up entry: CN(C)C(=O)c1ccc(N2CCC[C@@H]2c2csc(NC(=O)c3cccn3Cc3ccncc3)n2)cc1
0.17

Do the same for O=C(O)CCn1cccc1C(=O)Nc1nc([C@H]2CCCN2c2ccccc2)cs1 please
76.3

Similarly, Cc1ccnc(N2CCC[C@@H]2c2csc(NC(=O)c3cccn3Cc3ccncc3)n2)c1 ?
0.23

Now consider O=C(Nc1nc(CCc2ccc(OC(F)(F)F)cn2)cs1)c1cccn1Cc1ccncc1 .
0.28

Try O=C(Nc1nc([C@H]2CCCN2c2ccccc2)cs1)c1cccn1CCc1cccnc1 next.
0.1

---

Assign Liver Microsome Stability (Multiple Species): Rat - % Remaining after 30 min w/NADPH to each entry below.
- experiment.notes: Liver Microsome Stability Assay (rat)
- applied.conditions: rat liver microsomes, with NADPH, 1.0 uM compound
The response must be a number in % with no trailing unit.

// Liver Microsome Stability (Multiple Species): Rat - % Remaining after 30 min w/NADPH lookup, key: O=C(Nc1nc(/C=C/c2ncoc2C2CCCCC2)cs1)c1cccn1CC1CCOCC1 [Compound D4]
1.86

Similarly, O=C(Nc1nc(/C=C/c2cn(C3CCOCC3)cn2)cs1)c1cccn1Cc1ccnc(F)c1 [Compound B92] ?
2.02

Follow-up entry: O=C(Nc1ccc(N2CCC[C@@H]2c2csc(NC(=O)c3cccn3Cc3ccnc(F)c3)n2)cc1)O[C@@H]1CCOC1 [Compound A171]
16

# repeat for COC(=O)Nc1ccc(N2CCC[C@@H]2c2csc(NC(=O)c3cc(C)cn3Cc3ccnc(F)c3)n2)cc1 [Compound A172]
19.7

Further, for O=C(Nc1nc([C@@H]2CCCN2c2ccc(C(F)(F)F)cc2)cs1)c1cccn1Cc1ccnc(F)c1 [Compound A142] ?
59.4

Follow-up entry: O=C(Nc1ccc(N2CCC[C@@H]2c2csc(NC(=O)c3cccn3Cc3ccnc(F)c3)n2)cc1)OC1CNC1 [Compound A178]
51.4

Would you mind doing CN(C)C(=O)N1CCC(Oc2ccc(N3CCC[C@@H]3c3csc(NC(=O)c4cccn4Cc4ccnc(F)c4)n3)cc2)CC1 [Compound A137] as well?
24.2

---

- Test system: TNFα-FL/Gaussia Luciferase
- experiment.notes: Dox Induced TNFα-FL-Gluc Assay
- Assay type: cell-based
- applied.conditions: 24 hr Dox induction; 293FRT/TO cells; read-out: 24 hr Dox Inducible TNFaFLGluc 293FRT/TO: Mean IC50
experimental.readout: IC50 (µM)
Express your answer in µM, writing the number without its unit.

Request the reported IC50 associated with CC(C)n1cncc1/C=C/c1csc(NC(=O)c2cccn2Cc2ccncc2)n1
16.7

How about O=C(Nc1nc([C@H]2CCCN2c2ccc(C3CCCNC3)cc2)cs1)c1cccn1Cc1ccncc1 (stereo partly shown) ?
11.6

Quick one: CC(=O)N1CCC(Cc2ccc(N3CCC[C@@H]3c3csc(NC(=O)c4cccn4Cc4ccnc(F)c4)n3)cc2)CC1
0.691

Also check O=C(Nc1nc([C@H]2CCCN2c2ccc(OC3CCOCC3)cc2)cs1)c1cccn1Cc1ccncc1
0.369

Field entry: CC(C)c1ccc(/C=C/c2csc(NC(=O)c3cccn3Cc3ccnc(F)c3)n2)nc1
18.4

Please do the same for CC(=O)Nc1ccc(N2CCC[C@@H]2c2csc(NC(=O)c3cc(C)cn3Cc3ccnc(F)c3)n2)cc1 as well.
0.148

Quick one: CCc1ccc(N2CCC[C@@H]2c2csc(NC(=O)c3cccn3Cc3ccnc(F)c3)n2)cc1
0.0191

Try this compound too: CS(=O)(=O)Nc1ccc(N2CCC[C@@H]2c2csc(NC(=O)c3cccn3Cc3ccnc(F)c3)n2)cc1
0.888

Repeat for the following compound: O=C(Nc1nc([C@H]2CCCN2c2ccc(CO)cc2)cs1)c1cccn1Cc1ccncc1
0.287

Next compound: O=C(Nc1nc(-c2ccccc2-c2ccccn2)cs1)c1cccn1Cc1ccnc(F)c1
0.569

Lookup O=C(Nc1nc([C@H]2CCCN2c2ccc(O[C@@H]3CCCNC3)cc2)cs1)c1cccn1Cc1ccnc(F)c1
21.5

Attribution: patent US20230286973A1
